Value source: PubChem BioAssay AID2530

tgt: Luciferin 4-monooxygenase (Photuris pensylvanica)
method summary: Secondary Assay for Luciferase (Kinase-Glo TM) Inhibition Counterscreen
conditions: Kinase-Glo luciferase enzyme, luminescence; series mostly up to 58.1 µM
Inconclusive results are not listed. Activity calls are given as the source filed them. Calls come from the whole dose curve; as a rule, active = well fitted inhibition curve with a large enough effect; inconclusive = small, poorly fitted or top-dose-only effect; inactive = flat fitted curve, though single readings scatter.
I would appreciate it if you answered using one of these outcomes: active, inactive

Use these answered entries as a reference point.
# outcome recorded in this test, key = `Cc1ccsc1C(=O)Nc1nc2ccccc2[nH]1`
active

# outcome recorded in this test, key = `CC(=O)N1CCCc2cc(S(=O)(=O)Nc3ccc(C)c(C)c3)ccc21`
inactive

# outcome recorded in this test, key = CCOC(=O)C(C(C)=O)c1c(Br)c(O)c(O)c2c(C(=O)c3ccc(C)cc3)coc12 (stereo not drawn)
inactive

Now examine the next entry.
# outcome recorded in this test, key = `O=S1(=O)N=C(Oc2cccc(Cl)c2)c2ccccc21`
inactive

* * *

tgt: Luciferin 4-monooxygenase (Photuris pensylvanica)
method summary: Secondary Assay for Luciferase (Kinase-Glo TM) Inhibition Counterscreen
conditions: Kinase-Glo luciferase enzyme, luminescence; series mostly up to 58.1 µM
Results filed as inconclusive are left out. The source made the active and inactive calls. The call rests on the fitted dose curve; in most records, active means well fitted inhibition curve with a large enough effect; inconclusive means small, poorly fitted or top-dose-only effect; inactive means flat fitted curve, though single readings scatter.
I would appreciate it if you answered using one of these outcomes: active, inactive

Use these answered entries as a reference point.
# outcome recorded in this test, key = `CC(=O)Nc1cccc(S(=O)(=O)Nc2ccc(C)c(C)c2)c1`
inactive

# outcome recorded in this test, key = `COc1ccc(-c2cc3nc(C)n(N)c(=O)c3s2)cc1`
active

Further cases:
# outcome recorded in this test, key = `O=C(Nc1cccc(O)c1)C(=O)Nc1ccccn1`
active

# outcome recorded in this test, key = `O=C1c2ccccc2C(=O)N1c1cnc2ccccc2c1`
inactive

* * *

tgt: Luciferin 4-monooxygenase (Photuris pensylvanica) (UniProt Q27757)
method summary: Secondary Assay for Luciferase (Kinase-Glo TM) Inhibition Counterscreen
conditions: Kinase-Glo luciferase enzyme, luminescence; series mostly up to 58.1 µM
Inconclusive results are not listed. Active and inactive are the calls of the source. Calls follow the shape of the dose curve; as a rule, active = well fitted inhibition curve with a large enough effect; inconclusive = small, poorly fitted or top-dose-only effect; inactive = flat fitted curve, though single readings scatter.
I would appreciate it if you answered using one of these outcomes: yes (1) = active, no (0) = inactive

Use these answered entries as a reference point.
# outcome recorded in this test, key = `Cn1c(-c2ccc(Br)o2)nc2ccccc21`
yes (1)

# outcome recorded in this test, key = `O=C(Nc1ccc2c(c1)OCCO2)c1ccccn1`
yes (1)

# outcome recorded in this test, key = `O=C1c2ccccc2C(=O)N1c1ccccn1`
no (0)

# outcome recorded in this test, key = `Cc1ccc(NS(=O)(=O)c2ccc(-c3ccccc3)cc2)cc1C`
no (0)

# outcome recorded in this test, key = `Cc1ccc(NS(=O)(=O)c2ccc(F)cc2)cc1C`
no (0)

# outcome recorded in this test, key = `Cc1ccc(C)c(OC2=NS(=O)(=O)c3ccccc32)c1`
no (0)

# outcome recorded in this test, key = `O=C1c2ccccc2C(=O)N1Cc1ccccc1`
no (0)

# outcome recorded in this test, key = `COc1cc(F)c(S(=O)(=O)N2CCCN(S(=O)(=O)c3cccc(N)c3)CC2)c(F)c1`
no (0)

Further cases:
# outcome recorded in this test, key = `Oc1ccc(O)c2c1C1c3ccccc3C2c2ccccc21`
no (0)

* * *

tgt: Luciferin 4-monooxygenase (Photuris pensylvanica) (UniProt Q27757)
method summary: Secondary Assay for Luciferase (Kinase-Glo TM) Inhibition Counterscreen; note: potency is the fitted concentration of half-maximal effect
conditions: Kinase-Glo luciferase enzyme, luminescence; series mostly up to 58.1 µM
Inconclusive results are not listed. Activity calls are given as the source filed them. Calls follow the shape of the dose curve; as a rule, active = well fitted inhibition curve with a large enough effect; inconclusive = small, poorly fitted or top-dose-only effect; inactive = flat fitted curve, though single readings scatter.
readout kind: Potency

Some entries whose results are on file:
For Luciferin 4-monooxygenase (Photuris pensylvanica) (UniProt Q27757), provide Potency of `Nc1cc(S(=O)(=O)N2CCN(S(=O)(=O)c3ccc4c(c3)OCCO4)CC2)ccn1` please.
inactive

For Luciferin 4-monooxygenase (Photuris pensylvanica) (UniProt Q27757), provide Potency of `COC(=O)CSC1=NS(=O)(=O)c2ccccc21` please.
inactive

For Luciferin 4-monooxygenase (Photuris pensylvanica) (UniProt Q27757), provide Potency of `CN=c1scc(-c2ccco2)n1/N=C/c1ccc(O)c(O)c1` please.
inactive

For Luciferin 4-monooxygenase (Photuris pensylvanica) (UniProt Q27757), provide Potency of `O=C1c2ccccc2C(=O)N1c1cccc2ncccc12` please.
inactive

Let us move to another entry and its Potency.
For Luciferin 4-monooxygenase (Photuris pensylvanica) (UniProt Q27757), provide Potency of `Cc1ccc(NS(=O)(=O)c2cc3c(cc2Cl)NC(=O)CO3)cc1C` please.
inactive
